// data source = patent US12643910B2

Target: ENPP3 (Homo sapiens, UniProt O14638)
Sequence (O14638 1-875): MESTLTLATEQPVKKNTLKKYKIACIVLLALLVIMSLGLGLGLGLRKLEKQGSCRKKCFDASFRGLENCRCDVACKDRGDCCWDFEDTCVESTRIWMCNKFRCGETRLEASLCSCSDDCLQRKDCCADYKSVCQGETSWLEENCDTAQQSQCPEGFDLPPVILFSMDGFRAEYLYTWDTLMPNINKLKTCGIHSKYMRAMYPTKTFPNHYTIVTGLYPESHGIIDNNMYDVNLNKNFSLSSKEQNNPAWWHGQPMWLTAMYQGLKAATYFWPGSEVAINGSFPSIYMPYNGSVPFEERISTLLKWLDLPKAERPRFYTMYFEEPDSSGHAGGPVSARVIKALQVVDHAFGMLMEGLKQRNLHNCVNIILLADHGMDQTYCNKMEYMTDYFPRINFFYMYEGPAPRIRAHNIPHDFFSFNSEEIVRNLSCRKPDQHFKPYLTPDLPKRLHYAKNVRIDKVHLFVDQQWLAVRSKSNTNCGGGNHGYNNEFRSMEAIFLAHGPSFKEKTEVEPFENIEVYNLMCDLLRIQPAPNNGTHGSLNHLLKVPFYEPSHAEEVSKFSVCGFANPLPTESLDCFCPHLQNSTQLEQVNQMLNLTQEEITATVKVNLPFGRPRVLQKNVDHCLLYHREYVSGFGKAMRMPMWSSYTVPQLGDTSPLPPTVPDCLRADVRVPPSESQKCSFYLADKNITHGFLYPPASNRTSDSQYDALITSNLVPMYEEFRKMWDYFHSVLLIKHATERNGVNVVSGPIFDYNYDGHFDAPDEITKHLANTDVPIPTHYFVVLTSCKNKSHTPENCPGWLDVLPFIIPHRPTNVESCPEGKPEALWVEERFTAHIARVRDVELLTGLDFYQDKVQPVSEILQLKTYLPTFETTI
Assay: ENPP3 Km ATP assay
Type: biochemical
Conditions: ATP at Km
MEASURED PARAMETER: IC50

GET /values?readout=IC50&system=ENPP3 (Homo sapiens, UniProt O14638)&item= COc1cc(S(N)(=O)=O)ccc1CNc1ncnc2c1cnn2C
1 to 20 µM

Would you kindly repeat that for Cn1ncc2c(NCc3ccc(S(N)(=O)=O)cc3)nccc21 ?
1 to 20 µM

What would you report for Cn1ncc2c(NCc3ccc(S(N)(=O)=O)cc3)nc(OCC(F)(F)F)nc21 ?
0.1 to 1 µM

Query Cn1ncc2c(N3CCC(NCCCc4ccc(F)cc4)CC3)ncnc21 next
> 20 µM
